Organism: Rattus norvegicus
Experiment: Effect on Oxytocin-Induced contractions of rat uterus at 100 uM
Format: functional
MEASUREMENT LABEL: Contraction (%)
The reply should contain only the number, in %.

Input line: Form field: reported Contraction of `C[C@@H](NC1=NS(=O)(=O)c2cc(Cl)cnc2N1)c1ccccc1`
Output line: 32.6

Input line: Form field: reported Contraction of `C[C@H](NC1=NS(=O)(=O)c2cc(Cl)cnc2N1)C1CCCCC1`
Output line: 43.7

Input line: Form field: reported Contraction of `O=S1(=O)NC(NCc2ccccc2)=Nc2ncc(Cl)cc21`
Output line: 71.9

Input line: Form field: reported Contraction of `C[C@@H](NC1=NS(=O)(=O)c2cc(Cl)cnc2N1)C1CCCCC1`
Output line: 22.9

Input line: Form field: reported Contraction of `O=S1(=O)NC(NCC2CCCCC2)=Nc2ncc(Cl)cc21`
Output line: 90.4

Input line: Form field: reported Contraction of `C[C@H](NC1=NS(=O)(=O)c2cc(Cl)cnc2N1)c1ccccc1`
Output line: 41.1
